# Tested on: human CXCR3 (N-delta 4) (Homo sapiens, UniProt P49682)
# Construct: CD8 leader (N); Flag tag; expressed in transfected cells; membrane preparation
# Sequence (P49682 5-368 limits assumed): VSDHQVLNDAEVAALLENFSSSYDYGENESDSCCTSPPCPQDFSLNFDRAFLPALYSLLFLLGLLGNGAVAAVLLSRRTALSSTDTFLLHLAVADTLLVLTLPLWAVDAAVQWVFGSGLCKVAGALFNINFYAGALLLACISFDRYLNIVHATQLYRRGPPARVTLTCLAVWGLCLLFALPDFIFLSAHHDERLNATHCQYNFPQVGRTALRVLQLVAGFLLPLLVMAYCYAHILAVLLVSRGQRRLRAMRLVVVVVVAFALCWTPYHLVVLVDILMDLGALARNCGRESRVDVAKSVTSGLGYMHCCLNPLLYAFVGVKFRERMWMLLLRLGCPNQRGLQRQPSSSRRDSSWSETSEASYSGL
# Test details: Human CXCR3 (N-delta 4) Scintillation Proximity Assay (SPA), [125I] IP-10 binding
# Condition description: numerical IC50 values of representative compounds; read-out: IC50
# Text: The inventive compounds can readily be evaluated to determine activity at The CXCR3 receptors by known methods, such as, for example, Development of Human CXCR3 (N-delta 4) Binding Assay. Cloning and Expression of Human CXCR3 (N-delta 4): The DNA encoding human CXCR3 was cloned by PCR using human genomic DNA (Promega, Madison, Wis.) as a template. […]
pIC50: −log10 of the molar value.

# Compound string, pIC50
measured = [
    ("CC[C@H]1CN(c2nc3ncccc3c(=O)n2C2CC2)CCN1C1CCN(Cc2ccc(C(F)(F)F)cc2)CC1", 8.25),
    ("CC[C@H]1CN(c2nc3ncccc3c(=O)n2C2CC2)CCN1C1CCN(Cc2ccc(Cl)c(F)c2)CC1", 8.74),
    ("CC[C@H]1CN(c2nc3ncccc3c(=O)n2C2CC2)CCN1C1CCN(Cc2ccc(Cl)cc2F)CC1", 8.60),
    ("CC[C@H]1CN(c2nc3ncccc3c(=O)n2C2CC2)CCN1C1CCN(Cc2ccc(Cl)cc2)CC1", 8.72),
    ("CC[C@H]1CN(c2nc3ncccc3c(=O)n2C2CC2)CCN1C1CCN(Cc2ccc(OC(F)(F)F)cc2)CC1", 8.55),
]
